Molecular target: T1, EsCas13d, nuclease-dead (Eubacterium siraeum, UniProt B0MS50, R295A;H300A;R849A;H854A)
T1 sequence: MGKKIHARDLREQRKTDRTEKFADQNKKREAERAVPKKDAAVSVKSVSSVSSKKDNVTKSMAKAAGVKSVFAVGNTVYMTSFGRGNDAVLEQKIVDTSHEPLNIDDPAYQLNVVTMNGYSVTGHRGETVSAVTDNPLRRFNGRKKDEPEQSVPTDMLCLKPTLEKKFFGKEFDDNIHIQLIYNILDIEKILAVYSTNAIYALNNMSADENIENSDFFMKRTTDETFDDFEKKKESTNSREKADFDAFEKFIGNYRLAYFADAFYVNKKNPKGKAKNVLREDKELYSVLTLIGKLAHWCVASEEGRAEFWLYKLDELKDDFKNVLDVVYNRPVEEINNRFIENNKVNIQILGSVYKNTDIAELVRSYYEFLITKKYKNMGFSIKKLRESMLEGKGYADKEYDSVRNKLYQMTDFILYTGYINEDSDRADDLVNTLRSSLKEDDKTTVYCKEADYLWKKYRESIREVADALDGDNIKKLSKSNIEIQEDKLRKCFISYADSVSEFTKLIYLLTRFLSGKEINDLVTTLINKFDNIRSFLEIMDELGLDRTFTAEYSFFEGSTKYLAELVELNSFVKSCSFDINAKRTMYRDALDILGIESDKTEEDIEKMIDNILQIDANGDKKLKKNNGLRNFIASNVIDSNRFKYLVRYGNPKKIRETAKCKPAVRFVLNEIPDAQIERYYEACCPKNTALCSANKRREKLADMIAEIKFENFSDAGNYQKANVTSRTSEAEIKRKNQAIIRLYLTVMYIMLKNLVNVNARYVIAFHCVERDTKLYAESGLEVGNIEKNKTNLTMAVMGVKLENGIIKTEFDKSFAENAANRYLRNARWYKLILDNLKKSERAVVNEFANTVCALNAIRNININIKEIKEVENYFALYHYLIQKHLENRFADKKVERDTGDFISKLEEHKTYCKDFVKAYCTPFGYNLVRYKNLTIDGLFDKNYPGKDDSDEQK
Test: crRNA (strand 1, pre-loaded); Mg2+; 40 mM Tris-HCl pH 7.5, 150 mM NaCl, 6 mM MgCl2, 1 mM DTT, 0.1% Tween-20, 0.2 mg/ml BSA; 25 C; 10 min per concentration, then washed
Conditions: tags: His6-TwinStrep-SUMO cleaved; N-terminal SNAP kept (SNAP-Surface 488); label: 3' end held by stalled T7 RNA polymerase
ENDPOINT: Kd (nM)
Express it in nM; write the number only.

Look up Kd: target 1 insC 3' of 12,insG 3' of 11 (mixed) RNA 1: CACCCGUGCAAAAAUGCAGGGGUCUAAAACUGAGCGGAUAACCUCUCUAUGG RNA 2: GGGAAUGGAUCCACAUCUACGAAUUCGUACCAUAGAGAGGCUGUAUCCGCUCACCGAGAUCGGAAGAGCACACGU
11.7

Look up Kd: target 1 insA 3' of 10,insC 3' of 8 (mixed) RNA 1: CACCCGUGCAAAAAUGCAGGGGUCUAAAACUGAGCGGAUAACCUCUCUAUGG RNA 2: GGGAAUGGAUCCACAUCUACGAAUUCGUACCAUAGAGAGGUUAAUCCCGCUCACCGAGAUCGGAAGAGCACACGU
15.4

Look up Kd: target 2 MT 5'PFS UCU 3'PFS AAA (mixed) RNA 1: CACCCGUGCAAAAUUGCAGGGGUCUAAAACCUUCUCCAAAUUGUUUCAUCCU RNA 2: GGGAAUGGAUCCACAUCUACGAAUUCUCUAGGAUGAAACAAUUUGGAGAAGAAAAGAUCGGAAGAGCACACGU
20

Look up Kd: target 1 complement block 1-6 (mixed) RNA 1: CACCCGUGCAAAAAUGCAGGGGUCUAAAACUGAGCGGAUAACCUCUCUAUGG RNA 2: GGGAAUGGAUCCACAUCUACGAAUUCGUACCAUAGAGAGGUUAUCGCGAGUCCGAGAUCGGAAGAGCACACGU
6.14
